Metric name: melting point

Compound: NC(=S)NCc1cn(-c2ccc(N3CCOCC3)c(F)c2)nn1
melting point: 192 °C
--
Compound: Cc1onc(-c2ccco2)c1-c1ccccc1
melting point: 93 to 96 °C

# input compound: "COC(=O)c1cccn1Cc1ccccc1" ; wanted: its melting point
31 to 32 °C

Could you tell me which melting point is on file for COc1ccc2c(c1)CCC(CN1CCC(O)(c3ccccc3)CC1)C2=O (stereo unspecified) ?
163 to 165 °C

Request the reported melting point associated with "O=C(Nc1ccc(C(=O)N2CCCCc3cc(Cl)ccc32)cn1)c1ccccc1OCCCCO"
157 to 158 °C

Which melting point value belongs to "c1ccc(Sc2ccc3[nH]ccc3c2)cc1" ?
97 to 99 °C

* * *

Metric name: melting point

What value of measured melting point is listed for "COc1ccc(N2CCN(Cc3cc4ccccc4[nH]c3=O)CC2)cc1" ?
263 to 266 °C

Field request: melting point | item: "CCOC(=O)c1nc2c(C)nn(CC)c2nc1OCCC(C)C"
59 to 61 °C

* * *

Metric name: melting point

Tell me the measured melting point of "CCCCCCCNC(=O)Nc1ccccc1C(=O)NC1CCNCC1" , please.
159 °C

// query melting point value for entry "CCOC(=O)Cc1c(C)[nH]c2ccc(F)cc12"
61 to 62 °C

What does the record list as melting point for "COc1ccc(C(=O)c2ccc(OCC(=O)O)c(Cl)c2Cl)cc1" ?
158 to 159 °C

// melting point lookup, key: "COc1ccc(S(=O)(=O)NCCc2ccc(OCC(=O)O)cc2)cc1"
82 to 83 °C

What does the data say about its melting point? Entry: "CCOc1ccc(-c2cc(C)cn2-c2ccc(S(N)(=O)=O)cc2)cc1"
135 to 139 °C

# lookup: melting point of CC1OC(OCc2ccccc2)C(F)C(O)C1O (configuration not stated)
124 to 126 °C

# input compound: CON1CCC2(CC1)C(=O)C(Cl)(c1cc(C)c(C)cc1Cl)C(=O)N2C (configuration not stated) ; wanted: its melting point
93 to 94 °C

* * *

Parameter: melting point. Scope: all listed entries.

Compound: CCCN(C(=O)COc1c(C)cccc1C)C1CCc2c(ccc(O)c2O)C1 (stereo not given)
Metric name: melting point
Test result: 153 to 155 °C

Compound: CS(=O)(=O)Nc1ccc(C(N)=O)cc1Oc1ccc(F)cc1F
Metric name: melting point
Test result: 147 to 150 °C

Compound: CCOCc1nc2c(N)nc3ccccc3c2n1NCCCNS(C)(=O)=O
Metric name: melting point
Test result: 148 to 150 °C

Compound: OCC1OC(n2c(Cl)nc3cc(Br)c(Br)cc32)C(O)C1O (stereo not given)
Metric name: melting point
Test result: 126 to 129 °C

Please find the next compound below.
For the compound "CCc1nc2c(C)cc(C)nc2n1Cc1ccc(-c2ccccc2C(=O)NN)cc1" , what melting point is on record?
139 to 142 °C

* * *

melting point overview

Smiles str: CC(=O)OCc1ccc(-c2ccccc2)cn1
Test result: 71 to 72 °C

Smiles str: CN(C)C=Nc1ccc(-n2ncnc2-c2ccc(F)cc2)cc1
Test result: 90 to 93 °C

Smiles str: CON(Cc1nc2c(N)nc3cc(OCc4ccccc4)ccc3c2n1CC1CCOCC1)S(C)(=O)=O
Test result: 195 to 197 °C

Smiles str: Cn1c(=O)c(C#N)c(N2CCN(C(=O)c3cccs3)CC2)c2cccnc21
Test result: 266 °C

The record that follows has no melting point shown yet.
Suppose we examine the molecule "CC(C)(C)OC(=O)N(C(=O)OC(C)(C)C)C(=O)c1cc2cc(Br)ccc2o1" ; what melting point value has been reported?
138 to 139 °C

* * *

Metric name: melting point

melting point lookup needed for "COC(=O)Oc1c(Cl)c(-c2ccc(Cl)cc2)oc(=O)c1-c1c(C)cc(C)cc1C" , thanks.
136 to 138 °C

Looking for the measured melting point of "COc1ccc(C(=O)Nc2c(Cl)cncc2Cl)c2c1oc1ccncc12" , can you help?
> 260 °C

Field request: melting point | item: "Cn1c(-c2ccc(N3CCOCC3)cc2)cnc1[C@H](Cc1ccccn1)N(C=O)c1cc2cc(F)ccc2o1"
130 to 132 °C

Form field: reported melting point of "Cn1c(=Nc2ccccc2)sc2ncccc2c1=O"
189 to 190 °C

What value of measured melting point is listed for "CC(=NNC(=O)C1CC1)c1ccc(Cl)nc1" ?
218 °C

Field request: melting point | item: "COC(=O)c1ccc(I)cc1N"
63 to 67 °C

* * *

Catalogue of compounds with associated melting point

These recorded examples may help you get a feel for the data.
Compound: CCCCCCCCCCCCCCCCC(C(=O)OC(C)(C)C)C(=O)c1ccc(C(=O)OC(C)C)c(Cl)c1 (centres undefined)
melting point: 44 °C
//
Compound: C[C@@H](c1ccc(-c2ccc(F)cn2)cc1)N1CC[C@](CC(C)(C)O)(c2ccccc2)OC1=O
melting point: 159 to 160 °C
//
Compound: CCOC(=O)CC1CCc2c(oc3ccc(Cl)cc23)C1 (centres undefined)
melting point: 54 to 55.5 °C
//
Compound: O=CN[C@H]1CC[C@H](CCN2CCC(c3cccc4c3CCO4)CC2)CC1
melting point: 142 °C

Requested read-out: melting point. Entry: "Cc1nc2nccc(-c3cccnc3)n2n1"
244 to 245 °C

What does the data say about its melting point? Entry: "COc1ccc(S(=O)(=O)Nc2cccnc2Nc2cccc(F)c2)cc1"
180 to 181 °C

melting point lookup needed for "CC(=O)O[C@H]1CC=CO[C@@H]1COS(=O)(=O)c1ccc(C)cc1" , thanks.
76 to 79 °C

Entry COc1cc(N(CC(N)=O)S(=O)(=O)c2ccc(OC)c(OC)c2)c(C(O)c2c(F)cccc2F)cc1C (centres undefined) : reported melting point = ?
204 °C

Return reported melting point; argument: "COCCOc1cc2cc(C(=O)OC)c(C(=O)OC)c(-c3ccncc3)c2cc1OC"
156 to 158 °C

* * *

Metric name: melting point

Molecule: O=C(Nc1nc(C(F)(F)F)co1)C1c2ccc(F)cc2Oc2cc(F)ccc21
Test result: 265 °C
//
Molecule: CC(=O)NCc1ccc(CN2CCN(c3cnccn3)CC2)cc1
Test result: 118 to 119 °C
//
Molecule: CS(=O)(=O)c1ccc(-c2cnn(CC(F)(F)F)c(=O)c2Sc2ccc(F)c(Cl)c2)cc1
Test result: 142 to 145 °C
//
Molecule: NC(=O)CN1CC[C@@H](O)C1=O
Test result: 195 to 196 °C

melting point for CCCC(NS(=O)(=O)c1ccc(Cl)cc1)C(=S)Nc1ccc(CC(=O)OCC)cc1 (racemic) ?
121 to 123 °C

* * *

Reported melting point values for a set of compounds

Worked set:
Compound: CCOc1ccc(Oc2c([N+](=O)[O-])cc(C(=O)OC)cc2[N+](=O)[O-])cc1
melting point: 101 to 103 °C
--
Compound: CCOc1nn(-c2ccc(C(F)(F)F)cn2)cc1CCOc1cccc(CC(=O)O)c1
melting point: 128 to 130 °C
--
Compound: N#CC1(Nc2ccccc2)CCN(C2C3CCCC2CCC3)CC1 (stereo not given)
melting point: 168 °C
--
Compound: COc1cc(N)c(Cl)cc1C(=O)OCC12CCCN(CC1)C2 (stereo not given)
melting point: 131 to 133 °C

Consider now this further compound.
I would be grateful if you could share the reported melting point for "Cc1oc(-c2ccc(C(F)(F)F)cc2)nc1CCOc1c(Cl)cc(CN(O)C(N)=O)cc1Cl" .
137 to 139 °C

* * *

Metric name: melting point

Look over these answered cases.
Compound: COC(=O)c1ccc2c(c1)CN(c1cc3c(cc1F)c(=O)c(C(=O)O)cn3C1CC1)C2
melting point: 279 to 285 °C
--
Compound: CC1(O)OC(=O)c2ccc(Oc3ccc(C(F)(F)F)cc3Cl)cc21 (centres undefined)
melting point: 100 to 103 °C
--
Compound: O=C(Nc1cccc2ccccc12)c1ccn2c1CSC2c1cccnc1 (centres undefined)
melting point: 136 °C
--
Compound: COC(=O)COc1c2ccccc2cc2c1c1c(C(N)=O)cccc1n2Cc1ccccc1
melting point: 120 to 125 °C
--
Compound: CCSc1nc2c(cc1F)c(=O)c(C(=O)O)cn2C(C)(C)C
melting point: 215 °C

May I ask what melting point has been recorded for "COc1ccc(-c2nc(Cl)sc2-c2ccc(OC)cc2)cc1" ?
92 to 94 °C

Please give the measured melting point for this compound: CCCCNS(=O)(=O)CC(O)C(O)C(CC1CCCCC1)NC(=O)CC(CC)c1c[nH]cn1 (centres undefined)
60 to 90 °C

Which melting point value is on record for CC(c1ccccc1Cl)n1cnc2cnc3ccccc3c21 (centres undefined) ?
156 to 158 °C

Given the compound "O=C(O)CN1CC(=O)N(Cc2cccc([N+](=O)[O-])c2)C1=O" , what is its reported melting point?
165 to 166 °C
